Some variants, each annotated with its measured protein stability index.
B1: ZER1 (parent)
chain: FDGPEAWGVCEPQREEVEERMWAA

variants of: B1; test: protein stability index of a GFP-peptide fusion (GPS, HEK-293T) (PSI 1-6); higher = more stable; conditions: c terminus: a fixed tail appended;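 note: lentivirally expressed fusions sorted by FACS into six bins by GFP to DsRed ratio, PSI derived from sequencing read proportions per bin multiplied by bin number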

Past entries and their recorded results:
* P12F | 2.93
* R20D | 2.94

Okay, next one:
Given item C10A , the value recorded as its protein stability index is 3.02

These entries and their values trace back to the supplement of paper PMC10567573.
